Target: UniProt P41231
Sequence (P41231 whole entry): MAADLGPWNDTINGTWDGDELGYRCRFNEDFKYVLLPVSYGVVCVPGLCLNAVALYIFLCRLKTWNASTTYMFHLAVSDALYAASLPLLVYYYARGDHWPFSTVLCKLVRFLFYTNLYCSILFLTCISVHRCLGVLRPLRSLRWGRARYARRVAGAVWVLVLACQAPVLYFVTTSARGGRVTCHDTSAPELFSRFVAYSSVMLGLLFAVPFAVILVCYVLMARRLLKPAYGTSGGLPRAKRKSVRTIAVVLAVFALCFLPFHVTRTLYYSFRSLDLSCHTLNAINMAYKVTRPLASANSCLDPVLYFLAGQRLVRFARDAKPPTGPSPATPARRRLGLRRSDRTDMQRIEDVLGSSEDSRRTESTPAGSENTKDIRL
Assay: Antagonist activity at human P2Y2 receptor transfected in human 1321N1 cells assessed as inhibition of UTP-activated intracellular calcium mobilization preincubated for 30 mins followed by UTP addition by fluo-4-dye based fluorescence assay
pIC50: −log10 of the molar value.
reported endpoint: pIC50

Use the examples below as a reference point.
- item smiles: "Nc1c(S(=O)(=O)O)cc(Nc2ccc(SCc3cccnc3)cc2)c2c1C(=O)c1ccccc1C2=O"
  pIC50: 4.88
- item smiles: "Cc1cc(Nc2cc(S(=O)(=O)O)c(N)c3c2C(=O)c2ccccc2C3=O)ccc1O"
  pIC50: 4.79
- item smiles: "Nc1c(S(=O)(=O)O)cc(Nc2ccccc2)c2c1C(=O)c1ccccc1C2=O"
  pIC50: 4.77

(1) Cc1ccc(Sc2ccc(Nc3cc(S(=O)(=O)O)c(N)c4c3C(=O)c3ccccc3C4=O)cc2)cc1C
(2) Cc1ccc(C)c(Sc2ccc(Nc3cc(S(=O)(=O)O)c(N)c4c3C(=O)c3ccccc3C4=O)cc2)c1
Q) Could you determine which record has the numerically smaller pIC50? Candidates: 1 and 2 Pick one and reply with its label.
A) 1
(1: 4.99, 2: 5.19)

====

Target: UniProtKB P51582
Assay: Antagonist activity at human P2Y4 receptor transfected in human 1321N1 cells assessed as inhibition of UTP-activated intracellular calcium mobilization at 100 uM preincubated for 30 mins followed by UTP addition by fluo-4-dye based fluorescence assay
Assay type: functional, cell-based
reported endpoint: inhibition (%)

Use the examples below as a reference point.
- item smiles: "Nc1c(S(=O)(=O)O)cc(Nc2ccc(Cl)cc2C(=O)O)c2c1C(=O)c1ccccc1C2=O"
  inhibition / %: 31
- item smiles: "Nc1c(S(=O)(=O)O)cc(Nc2cc(F)ccc2C(=O)O)c2c1C(=O)c1ccccc1C2=O"
  inhibition / %: 33

(I) Cc1cc(Nc2ccc(F)cc2C(=O)O)c2c(c1N)C(=O)c1ccccc1C2=O
(II) Nc1c(S(=O)(=O)O)cc(Nc2cccc(F)c2C(=O)O)c2c1C(=O)c1ccccc1C2=O
Q) Which shows the larger inhibition value: I or II ? Pick one and reply with its label.
A) I

====

Biological target: P2Y purinoceptor 4 (Homo sapiens, UniProt P51582)
Sequence (P51582 whole entry): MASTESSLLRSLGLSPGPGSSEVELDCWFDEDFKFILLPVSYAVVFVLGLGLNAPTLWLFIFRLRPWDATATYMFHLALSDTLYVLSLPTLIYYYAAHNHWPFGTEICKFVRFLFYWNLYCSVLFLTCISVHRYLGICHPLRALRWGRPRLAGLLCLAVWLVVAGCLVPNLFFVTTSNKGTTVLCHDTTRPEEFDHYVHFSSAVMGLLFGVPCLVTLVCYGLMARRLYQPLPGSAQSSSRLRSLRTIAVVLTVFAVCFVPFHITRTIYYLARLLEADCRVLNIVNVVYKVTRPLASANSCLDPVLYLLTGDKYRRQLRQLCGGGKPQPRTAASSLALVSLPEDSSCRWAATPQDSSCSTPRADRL
Test: Antagonist activity at human P2Y4 receptor transfected in human 1321N1 cells assessed as inhibition of UTP-activated intracellular calcium mobilization preincubated for 30 mins followed by UTP addition by fluo-4-dye based fluorescence assay
reported endpoint: IC50 (nM)

Use the examples below as a reference point.
- item smiles: "Nc1c(S(=O)(=O)O)cc(Nc2ccccc2Cl)c2c1C(=O)c1ccccc1C2=O"
  tested on: "P2Y purinoceptor 4 (Homo sapiens, UniProt P51582)"
  reported endpoint: "IC50"
  display unit: "nM"
  obs value: 9340
- item smiles: "COc1cc(Nc2cc(S(=O)(=O)O)c(N)c3c2C(=O)c2ccccc2C3=O)ccc1Cl"
  tested on: "P2Y purinoceptor 4 (Homo sapiens, UniProt P51582)"
  reported endpoint: "IC50"
  display unit: "nM"
  obs value: 3370
- item smiles: "COc1ccccc1Nc1cc(S(=O)(=O)O)c(N)c2c1C(=O)c1ccccc1C2=O"
  tested on: "P2Y purinoceptor 4 (Homo sapiens, UniProt P51582)"
  reported endpoint: "IC50"
  display unit: "nM"
  obs value: 3980
- item smiles: "Nc1c(S(=O)(=O)O)cc(Nc2ccc(Nc3nc(Cl)nc(Nc4cccc(S(=O)(=O)O)c4)n3)c(S(=O)(=O)O)c2)c2c1C(=O)c1ccccc1C2=O"
  tested on: "P2Y purinoceptor 4 (Homo sapiens, UniProt P51582)"
  reported endpoint: "IC50"
  display unit: "nM"
  obs value: 1140
- item smiles: "Nc1c(S(=O)(=O)O)cc(Nc2ccc(SCc3cccnc3)cc2)c2c1C(=O)c1ccccc1C2=O"
  tested on: "P2Y purinoceptor 4 (Homo sapiens, UniProt P51582)"
  reported endpoint: "IC50"
  display unit: "nM"
  obs value: 409
- item smiles: "Cc1cccc(Nc2cc(S(=O)(=O)O)c(N)c3c2C(=O)c2ccccc2C3=O)c1"
  tested on: "P2Y purinoceptor 4 (Homo sapiens, UniProt P51582)"
  reported endpoint: "IC50"
  display unit: "nM"
  obs value: 2220

(1) Cc1cc(Cl)ccc1Nc1cc(S(=O)(=O)O)c(N)c2c1C(=O)c1ccccc1C2=O
(2) Nc1c(S(=O)(=O)O)cc(Nc2cccc(C(=O)O)c2)c2c1C(=O)c1ccccc1C2=O
Q) Could you determine which record has the numerically smaller IC50? Candidates: 1 and 2 Pick one and reply with its label.
A) 1

All figures here come from ChEMBL document CHEMBL4007497.
